// data source = FireProtDB (doi:10.1021/bi500238q)

The following variants are listed with their measured Tm values.
B1: Dihydrofolate reductase, Q5KZ26 (parent)
chain: MISHIVAMDENRVIGKDNRLPWHLPADLAYFKRVTMGHAIVMGRKTFEAIGRPLPGRDNVVVTRNRSFRPEGCLVLHSLEEVKQWIASRADEVFIIGGAELFRATMPIVDRLYVTKIFASFPGDTFYPPISDDEWEIVSYTPGGKDEKNPYEHAFIIYERKKAK

- Variants of: B1
- cond: Geobacillus kaustophilus (strain HTA426); pH 7; Thermal; CD; Potassium Phosphate Buffer 10 mM; structure 1ZDR; whole UniProt chain shown
outcome-measure: Tm (°C)

[[record]]
variant_designation = "L20M A104Q"
units_text = "°C"
recorded_number = 61.1

[[record]]
variant_designation = "L20M"
units_text = "°C"
recorded_number = 61.4

[[record]]
variant_designation = "P129D"
units_text = "°C"
recorded_number = 64.6

[[record]]
variant_designation = "P122E"
units_text = "°C"
recorded_number = 65.3

[[record]]
variant_designation = "P122E P129D"
units_text = "°C"
recorded_number = 65

